B1: P2RY14 (parent)
chain: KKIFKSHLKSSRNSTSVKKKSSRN

variants of: B1; test: protein stability index of a GFP-peptide fusion (GPS, HEK-293T) (PSI 1-6); higher = more stable; settings: c terminus: a fixed tail appended;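 further: lentivirally expressed fusions sorted by FACS into six bins by GFP to DsRed ratio, PSI derived from sequencing read proportions per bin multiplied by bin number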
Criterion: protein stability index meeting or surpassing 4. Met: satisfied. Not met: not satisfied.

R12T; satisfied

Query :: Test whether the variant K19C records protein stability index of 4 or higher.
Result :: not satisfied

Query :: What do you get for K5Y ?
Result :: not satisfied

Query :: What do you get for N24Y ?
Result :: not satisfied
